Values compiled from the OligoGym collection.

molecular target: Tau; assay: rat primary cortical neurons, FLIPR, 25 uM ASO
Bases are written 5' to 3'; sugars and linkages follow in the same order, as letters with counts (s phosphorothioate, o phosphodiester; PS: all linkages phosphorothioate). The collection does not say whether C is 5-methylated. l = locked nucleic acid (LNA); d = 2'-deoxy (DNA)
For each entry below, report its calcium oscillation score value.

What value of measured calcium oscillation score is listed for CTGGTTTATGATGG (sugars l3 d8 l3, PS) ?
32.6 % of control

Query: calcium oscillation score; subject: TGGGTGATATTGTCCAGGGA (sugars l3 d14 l3, PS)
0 % of control

Data request, read-out calcium oscillation score, for ATTTTACTACTCTCTTTTCT (sugars l3 d14 l3, PS)
68 % of control

###

target: Tau; experiment: rat primary cortical neurons, FLIPR, 25 uM ASO
Bases are written 5' to 3'; sugars and linkages follow in the same order, as letters with counts (s phosphorothioate, o phosphodiester; PS: all linkages phosphorothioate). The collection does not say whether C is 5-methylated. l = locked nucleic acid (LNA); d = 2'-deoxy (DNA)
assay readout: calcium oscillation score

So what calcium oscillation score did TAATCCTACCACCAGA (sugars l2 d10 l4, PS) get with Tau?
86 % of control

Query for Tau: what calcium oscillation score does the record show for CATGATTAATTACACCC (sugars l3 d11 l3, PS) ?
35.5 % of control

Give recorded calcium oscillation score with Tau for the following sequence: GGTTTGTAGACTATT (sugars l3 d9 l3, PS)
0 % of control

For Tau, provide calcium oscillation score of CGAGCCAAAGCCGA (sugars l3 d8 l3, PS) please.
116 % of control

Given the entry GCCTAATGAGCCACAC (sugars l3 d10 l3, PS) , what calcium oscillation score was observed with Tau?
70.6 % of control

Tell me reported calcium oscillation score for TTTTCAAACACACCTTCAT (sugars l3 d12 l4, PS) , tested with Tau.
80.8 % of control

Any idea what calcium oscillation score came out for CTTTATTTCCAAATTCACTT (sugars l4 d13 l3, PS) on Tau?
121 % of control

###

Please go through the items and note down their calcium oscillation score.
biological target: Tau; test: rat primary cortical neurons, FLIPR, 25 uM ASO
Bases are written 5' to 3'; sugars and linkages follow in the same order, as letters with counts (s phosphorothioate, o phosphodiester; PS: all linkages phosphorothioate). The collection does not say whether C is 5-methylated. l = locked nucleic acid (LNA); d = 2'-deoxy (DNA)

Quick check: calcium oscillation score on Tau, item ACCCACTTTCCTAATTCCCA (sugars l1 d17 l2, PS) ?
76.6 % of control

Field: calcium oscillation score (Tau). Entry: CTTTTTCTTGTTCTAACC (sugars l3 d11 l4, PS)
62.3 % of control

# get_value(readout= calcium oscillation score, system= Tau) for TACATGCGTCCTTT (sugars l3 d8 l3, PS)
91.8 % of control

Could you share what calcium oscillation score was measured for CTTTCTACTCAATTCCAG (sugars l3 d12 l3, PS) , tested on Tau?
45.5 % of control

Give recorded calcium oscillation score with Tau for the following sequence: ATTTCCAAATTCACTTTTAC (sugars l4 d10 l2 d2 l2, PS)
137 % of control

Value wanted: calcium oscillation score (Tau) of entry GCAGGCGCGAGCAG (sugars l3 d8 l3, PS)
40.6 % of control

Enter reported calcium oscillation score observed with Tau for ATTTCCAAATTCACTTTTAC (sugars lldllddddddddddlldll, PS)
85.2 % of control

Under Tau: calcium oscillation score value of GTCTTTGCTTTTACTGACCA (sugars l3 d14 l3, PS) ?
44.4 % of control

Query calcium oscillation score on Tau for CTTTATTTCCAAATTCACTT (sugars l2 d1 l2 d12 l3, PS)
112 % of control

Reported calcium oscillation score for Tau, given CTACTTTATTCCCTTAAC (sugars l4 d11 l3, PS) ?
91.3 % of control

Request body: readout calcium oscillation score, system Tau, query AAACTCATTTACCAATTAT (sugars l4 d11 l4, PS) . Return the value.
70.7 % of control

Param readout= calcium oscillation score; system= Tau; entry= ACTTAAAATTTTTCTTATT (sugars l4 d11 l4, PS) ; returns value.
75.1 % of control

Can you look up calcium oscillation score on Tau for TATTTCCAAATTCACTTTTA (sugars lllddldddddddddldlll, PS) ?
147 % of control

# query: calcium oscillation score | item TTTATCCCTCCATGATT (sugars l2 d12 l3, PS) | system: Tau
58.8 % of control

Give calcium oscillation score (Tau) of the following sequence: CAGATATTCATTCCCTC (sugars l2 d12 l3, PS)
64.4 % of control

Give recorded calcium oscillation score with Tau for the following sequence: AGAAATAAGTGGTAGT (sugars l4 d8 l4, PS)
88.1 % of control

Find the measured calcium oscillation score: item CCTTTTAAAAGAACCCT (sugars l3 d11 l3, PS) , target or system Tau.
96 % of control

What is its calcium oscillation score for Tau? Entry: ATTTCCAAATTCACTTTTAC (sugars l2 d1 l2 d11 l4, PS)
147 % of control

State its calcium oscillation score on Tau: TGGATATAGTTAAGGC (sugars l2 d12 l2, PS)
115 % of control

Request: calcium oscillation score, test system Tau, entry ACCATCATACTCCAAG (sugars l4 d9 l3, PS)
76 % of control

Request: calcium oscillation score, test system Tau, entry CTTTATTTCCAAATTCACT (sugars l4 d10 l2 d1 l2, PS)
93.2 % of control

# query: calcium oscillation score | item GGTGCTCTGGTCAAGG (sugars l3 d10 l3, PS) | system: Tau
14.9 % of control

Kindly state the measured calcium oscillation score obtained for AAGCTTCCACATTTTAC (sugars l4 d10 l3, PS) with Tau.
68.4 % of control

Test system Tau; read-out calcium oscillation score; what value for CCACTCCATGTCAATC (sugars l4 d10 l2, PS) ?
69.3 % of control

Give the reported calcium oscillation score for TTCCCAAATTCCTCATAATC (sugars l3 d15 l2, PS) (system: Tau).
69.1 % of control

Which measured calcium oscillation score belongs to TTACTTTCTACTCAATTCCA (sugars l3 d15 l2, PS) , tested on Tau?
60.6 % of control

Write down the reported calcium oscillation score of CACTCAAGAAATGGTTTGCT (sugars l3 d14 l3, PS) , test system: Tau.
9.52 % of control

What value of calcium oscillation score on Tau does ACTTACTGATCATAAT (sugars l4 d8 l4, PS) have?
77.2 % of control

For Tau, provide calcium oscillation score of CCTCCACCCTTACACAT (sugars l2 d13 l2, PS) please.
55.6 % of control

Enter reported calcium oscillation score observed with Tau for ATTCTCAGCACACCATT (sugars l4 d11 l2, PS)
41.3 % of control

Item TAATGAGCCACACTTGGAGG (sugars l3 d14 l3, PS) with Tau - calcium oscillation score?
0 % of control

Under Tau: calcium oscillation score value of CATTTACCAATTATCTTTAA (sugars l4 d12 l4, PS) ?
72 % of control

Give the reported calcium oscillation score for AATAGATCTTTCCCCTCC (sugars l2 d13 l3, PS) (system: Tau).
76.7 % of control

Tau / calcium oscillation score / AACTAAATTTACCTCA (sugars l4 d8 l4, PS) : value?
88.1 % of control

API: value(readout=calcium oscillation score, system=Tau) for record CTTAGTCATCTTCCCTCA (sugars l2 d14 l2, PS)
93.8 % of control

What calcium oscillation score appears in the records for this sequence with Tau? GATGGATGTTGCCTAATGAG (sugars l3 d14 l3, PS)
0 % of control

Identify the measured calcium oscillation score of GTCGATGCTGCCGG (sugars l3 d8 l3, PS) for Tau.
36.5 % of control

Recall the recorded calcium oscillation score for TGCTCAGCTAAGACCCTCAG (sugars l3 d14 l3, PS) with Tau and state it.
29.4 % of control

Please tell me: calcium oscillation score of CATGATCTTAGGCTG (sugars l3 d9 l3, PS) , system Tau?
46 % of control
